- Tested on: Escherichia coli ATCC 25922
Here the recorded MIC is given for each entry.

smilesStr	unitsOfMeasure	MIC
CC(C)C[C@H](NC(=O)[C@H](CCCCN)NC(=O)[C@H](CCCN=C(N)N)NC(=O)[C@H](Cc1ccccc1)NC(=O)[C@H](Cc1ccccc1)NC(=O)[C@H](CCCCN)NC(=O)[C@H](CCCN=C(N)N)NC(=O)[C@H](CC(C)C)NC(=O)[C@H](CC(C)C)NC(=O)[C@@H](N)CCCN=C(N)N)C(=O)N[C@@H](CCCCN)C(=O)N[C@@H](CCCCN)C(=O)N[C@@H](CO)C(=O)N[C@H](C(=O)O)C(C)C	µM	17.6
CC(C)C[C@H](NC(=O)[C@H](Cc1ccccc1)NC(=O)[C@@H]1CCCN1C(=O)[C@H](Cc1c[nH]c2ccccc12)NC(=O)[C@H](C)NC(=O)[C@H](Cc1c[nH]c2ccccc12)NC(=O)[C@@H]1CCCN1C(=O)[C@H](Cc1ccccc1)NC(=O)[C@H](CCCN=C(N)N)NC(=O)[C@H](CCCN=C(N)N)NC(=O)[C@@H](N)C(C)C)C(=O)N[C@@H](CCCN=C(N)N)C(=O)N[C@@H](CCCN=C(N)N)C(N)=O	µM	16

###

- Test system: Staphylococcus epidermidis KCTC 1917
- testProtocol: ≥ marks a high value that may be exact or a test limit, other limits are often not marked, values filed in µg/mL are converted to µM
observationType: MIC (µM)

smilesStr	recordedNumber
CC[C@H](C)[C@H](NC(=O)[C@H](CCCN=C(N)N)NC(=O)[C@H](CCCN=C(N)N)NC(=O)[C@H](CC(C)C)NC(=O)[C@@H](N)CCCN=C(N)N)C(=O)N[C@@H](Cc1c[nH]c2ccccc12)C(=O)N[C@@H](Cc1c[nH]c2ccccc12)C(=O)N[C@H](C(=O)N[C@@H](CCCN=C(N)N)C(=O)N[C@H](C(=O)N[C@@H](CCCN=C(N)N)C(=O)N[C@@H](CCCN=C(N)N)C(N)=O)C(C)C)[C@@H](C)CC	3.54
CC(C)C[C@H](NC(=O)[C@H](CCCCN)NC(=O)[C@H](CCCCN)NC(=O)[C@H](Cc1c[nH]c2ccccc12)NC(=O)[C@H](CC(C)C)NC(=O)[C@H](CCCCN)NC(=O)[C@H](CCCCN)NC(=O)[C@H](Cc1c[nH]c2ccccc12)NC(=O)[C@H](CCCCN)NC(=O)[C@H](CCCCN)NC(=O)[C@H](CCCN=C(N)N)NC(=O)[C@H](Cc1c[nH]c2ccccc12)NC(=O)[C@H](CCCN=C(N)N)NC(=O)[C@H](CCCCN)NC(=O)[C@H](Cc1c[nH]c2ccccc12)NC(=O)[C@H](CCCN=C(N)N)NC(=O)CN)C(=O)N[C@@H](CO)C(N)=O	8

###

Recorded below: MIC, system Micrococcus luteus.

compound	measuredTarget	unitsOfMeasure	qualifier	MIC
CC[C@H](C)[C@H](NC(=O)[C@@H](NC(=O)CN)C(C)C)C(=O)N[C@@H](CC(=O)O)C(=O)N[C@@H](C)C(=O)N[C@@H](C)C(=O)N[C@@H](C)C(=O)N[C@@H](CCCCN)C(=O)N[C@H](C(=O)N[C@H](C(=O)N[C@@H](CC(N)=O)C(=O)N[C@H](C(=O)N[C@@H](CC(C)C)C(=O)N[C@@H](CCCCN)C(=O)N[C@@H](CC(N)=O)C(=O)N[C@@H](CC(C)C)C(=O)N[C@@H](Cc1ccccc1)C(N)=O)C(C)C)C(C)C)C(C)C [GVIDAAAKVVNVLKNLF]	Micrococcus luteus	µM	≥	56.5
CC[C@H](C)[C@H](NC(=O)[C@H](C)NC(=O)[C@@H]1CCCN1C(=O)[C@H](CC(C)C)NC(=O)[C@@H](NC(=O)[C@H](Cc1cnc[nH]1)NC(=O)[C@H](CO)NC(=O)[C@@H](NC(=O)[C@@H](NC(=O)[C@H](CO)NC(=O)CNC(=O)[C@H](CC(C)C)NC(=O)[C@H](CC(C)C)NC(=O)CNC(=O)[C@H](CC(C)C)NC(=O)[C@H](CC(C)C)NC(=O)CN)C(C)C)C(C)C)C(C)C)C(=O)N[C@H](C(=O)N[C@@H](CCC(N)=O)C(=O)N[C@@H](Cc1cnc[nH]1)C(=O)N[C@@H](CC(C)C)C(N)=O)[C@@H](C)O [GLLGLLGSVVSHVLPAITQHL]	Micrococcus luteus	µM	=	23.5
CC(C)C[C@H](NC(=O)[C@@H](NC(=O)[C@H](CCCCN)NC(=O)[C@H](CO)NC(=O)[C@H](C)NC(=O)[C@@H](NC(=O)[C@H](CCCCN)NC(=O)[C@H](Cc1ccccc1)NC(=O)[C@H](CC(C)C)NC(=O)[C@H](C)NC(=O)CNC(=O)[C@H](CC(C)C)NC(=O)[C@@H](N)Cc1ccccc1)C(C)C)C(C)C)C(=O)O [FLGALFKVASKVL]	Micrococcus luteus	µM	=	4.52
CC(C)C[C@H](NC(=O)[C@H](C)NC(=O)[C@H](Cc1c[nH]c2ccccc12)NC(=O)[C@H](CC(C)C)NC(=O)[C@@H](N)Cc1ccccc1)C(=O)N[C@@H](Cc1ccccc1)C(=O)N[C@@H](CCCCN)C(=O)N[C@H](C(=O)N[C@@H](C)C(=O)N[C@@H](CO)C(=O)N[C@@H](CCCCN)C(=O)O)C(C)C [FLWALFKVASK]	Micrococcus luteus	µM	≥	38.2
CC(C)C[C@H](NC(=O)[C@H](CC(C)C)NC(=O)[C@H](CCCCN)NC(=O)[C@H](CC(C)C)NC(=O)[C@H](CC(C)C)NC(=O)[C@H](CCCCN)NC(=O)[C@H](CC(C)C)NC(=O)[C@H](CC(C)C)NC(=O)[C@H](CCCCN)NC(=O)[C@H](CC(C)C)NC(=O)[C@H](CC(C)C)NC(=O)[C@H](CCCCN)NC(=O)[C@H](CC(C)C)NC(=O)[C@@H](N)CCCCN)C(=O)N[C@@H](CCCCN)C(N)=O [KLKLLKLLKLLKLLK]	Micrococcus luteus	µM	=	2
CC[C@H](C)[C@H](NC(=O)[C@H](Cc1ccccc1)NC(=O)[C@H](CCCCN)NC(=O)[C@H](CCCCN)NC(=O)[C@H](CCC(=O)O)NC(=O)[C@H](CC(N)=O)NC(=O)[C@H](Cc1ccc(O)cc1)NC(=O)[C@H](CCCCN)NC(=O)[C@H](CC(N)=O)NC(=O)[C@H](CC(C)C)NC(=O)[C@H](CCC(=O)O)NC(=O)[C@H](CC(N)=O)NC(=O)[C@H](CC(C)C)NC(=O)[C@H](Cc1ccccc1)NC(=O)[C@H](CO)NC(=O)[C@@H](N)[C@@H](C)O)C(=O)O [TSFLNELNKYNEKKFI]	Micrococcus luteus	µM	=	31.4

All figures here come from DBAASP.
